Would you mind telling me the reported IC50 of each entry?
Test system: MDA-MB-231 cells
Test Name: MTS cell viability assay (cytotoxic / cytostatic activity)
Assay type: cell-based, human
Measurement Conditions: Homo sapiens, 72 h incubation, read-out: concentration that caused 50% inhibition of growth (IC50)
Report the value in µM with no unit label.

Input: Fill in the blank: the reported IC50 of CCCCCCCCC=CCCCCC=CCCCC(=O)OCC(C)CCCC(C)C1C(O)C(O)C2C3CC(O)C4CC(O)CCC4(C)C3CCC12C (stereo not drawn) is ____.
Output: 73

Input: Fill in the blank: the reported IC50 of CCCCCCC=CCCCCCCCCCC(=O)OCC(C)CCCC(C)C1C(O)C(O)C2C3CC(O)C4CC(O)CCC4(C)C3CCC12C (stereo not drawn) is ____.
Output: 33

Input: Fill in the blank: the reported IC50 of CCCCCCC=CCCCCC=CCCCC(=O)OCC(C)CCCC(C)C1C(O)C(O)C2C3CC(O)C4CC(O)CCC4(C)C3CCC12C (stereo not drawn) is ____.
Output: 74

---

Would you mind telling me the reported inhibition at 20 µM of each entry?
System: HCT 116 cells
Test Name: Soft agar colony formation assay
Assay type: cell-based
Measurement Conditions: Homo sapiens, 336 h, 14 days
Report the value in % with no unit label.

Input: Fill in the blank: the reported inhibition at 20 µM of CCCCCCC=CCCCCC=CCCCC(=O)OCC(C)CCCC(C)C1C(O)C(O)C2C3CC(O)C4CC(O)CCC4(C)C3CCC12C (stereo not shown) is ____.
Output: 20

Input: Fill in the blank: the reported inhibition at 20 µM of CCCCCCCCCCCCC=CCCCCCC(=O)OCC(C)CCCC(C)C1C(O)C(O)C2C3CC(O)C4CC(O)CCC4(C)C3CCC12C (stereo not shown) is ____.
Output: 16

Input: Fill in the blank: the reported inhibition at 20 µM of CCCCCCCCC=CCCCCC=CCCCC(=O)OCC(C)CCCC(C)C1C(O)C(O)C2C3CC(O)C4CC(O)CCC4(C)C3CCC12C (stereo not shown) is ____.
Output: 18

Input: Fill in the blank: the reported inhibition at 20 µM of CCCCCCC=CCCCCCCCCCC(=O)OCC(C)CCCC(C)C1C(O)C(O)C2C3CC(O)C4CC(O)CCC4(C)C3CCC12C (stereo not shown) is ____.
Output: 27
